Target: Chromobox protein homolog 1 (Homo sapiens)
Assay: qHTS Validation Assay for Inhibitors of HP1-beta Chromodomain Interactions with Methylated Histone Tails (AID 488953); note: nearly all actives have a fitted effect of over 50% in size
Conditions: HP1-beta chromodomain / methylated histone peptide binding assay; series mostly up to 114 µM
Inconclusive results are not listed. Activity calls are given as the source filed them. Calls come from the whole dose curve; as a rule, active = well fitted inhibition curve with a large enough effect; inconclusive = small, poorly fitted or top-dose-only effect; inactive = no such curve, though single readings can be large or run the other way.
Answer with one of the outcomes given here: active, inactive

Some entries whose results are on file:
COc1ccc(C2CNC(=O)C2)cc1OC1CCCC1 (stereo not given): inactive
CC(C)NCC(O)COc1ccc(CCOCC2CC2)cc1 (stereo not given): inactive
Nc1c2c(nc3ccccc13)CCCC2: inactive

Outcome? O=c1[nH]cc(F)c(=O)[nH]1
inactive

Outcome? COC(=O)Nc1nc2ccc(C(=O)c3cccs3)cc2[nH]1
inactive

Outcome? CC#C[C@]1(O)CC[C@H]2[C@@H]3CCC4=CC(=O)CCC4=C3[C@@H](c3ccc(N(C)C)cc3)C[C@@]21C
active

----------
Tested on: CP297
Experiment: qHTS profiling for inhibitors of Plasmodium falciparum proliferation (AID 504749); note: nearly all actives have a fitted effect of over 60% in size
Settings: P. falciparum in erythrocytes, SYBR Green DNA, 72 h; series mostly up to 28.7 µM
Protocol: NIH National Institute of Allergy and Infectious Diseases [NIAID] NIH Chemical Genomics Center [NCGC] […] Because mature erythrocytes lack DNA, only Plasmodium-derived DNA is detected. NCGC Assay Protocol Summary: The SYBR Green viability assay was adapted from a method described previously (Plouffe et al., 2008). […] The following morning, fluorescence intensity at 485(14) nm excitation and 535(25) nm emission wavelengths was measured on an EnVision (Perkin Elmer) plate reader. […]
Inconclusive results are not listed. Activity calls are given as the source filed them. Calls come from the whole dose curve; as a rule, active = well fitted inhibition curve with a large enough effect; inconclusive = small, poorly fitted or top-dose-only effect; inactive = flat fitted curve, though single readings scatter.
attribute_measured: outcome

O=c1c(-c2ccc(O)cc2)coc2cc(O)cc(O)c12: inactive
Nc1nnc(-c2cccc(Cl)c2Cl)c(N)n1: inactive
CC(C)NCC(O)COc1ccc(CCOCC2CC2)cc1 (stereo not drawn): inactive

----------
Test system: W2
Assay: qHTS profiling for inhibitors of Plasmodium falciparum proliferation (AID 504749); note: nearly all actives have a fitted effect of over 60% in size
Settings: P. falciparum in erythrocytes, SYBR Green DNA, 72 h; series mostly up to 28.7 µM
Results filed as inconclusive are left out. Active and inactive are the calls of the source. Calls come from the whole dose curve; as a rule, active = well fitted inhibition curve with a large enough effect; inconclusive = small, poorly fitted or top-dose-only effect; inactive = flat fitted curve, though single readings scatter.
Answer with one of the outcomes given here: active, inactive

CN(C)c1nc(N(C)C)nc(N(C)C)n1: inactive
CNCCCC12CCC(c3ccccc31)c1ccccc12: active
CN1CCC(=C2c3ccccc3CC(=O)c3sccc32)CC1: active
CN(C)CCC=C1c2ccccc2C=Cc2ccccc21: active
C[C@](N)(Cc1ccc(O)c(O)c1)C(=O)O: inactive
Nc1nnc(-c2cccc(Cl)c2Cl)c(N)n1: inactive
CC#C[C@]1(O)CC[C@H]2[C@@H]3CCC4=CC(=O)CCC4=C3[C@@H](c3ccc(N(C)C)cc3)C[C@@]21C: active
COc1ccccc1OCC(O)CN1CCN(CC(=O)Nc2c(C)cccc2C)CC1 (stereo unspecified): inactive

Outcome? Cn1c(=O)c2c(ncn2C)n(C)c1=O
inactive

Outcome? CCCCc1oc2ccccc2c1C(=O)c1cc(I)c(OCCN(CC)CC)c(I)c1
active

Outcome? CC(C)NCC(O)COc1ccc(CCOCC2CC2)cc1 (stereo unspecified)
active

----------
Target: phosphoglycerate mutase (Leishmania major)
Experiment: qHTS Validation Assay to Find Inhibitors of Phosphoglycerate Mutase (AID 504548);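 note: end-point luminescence from Kinase-GloPlus after the PGAM reaction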
Conditions: biochemical enzyme activity; series mostly up to 57.5 µM
Inconclusive results are not listed. Calls of active or inactive are those of the source. Calls follow the shape of the dose curve; as a rule, active = well fitted curve in the direction sought with a large enough effect; inconclusive = small, poorly fitted or top-dose-only effect, or another doubt; inactive = no such curve, though single readings can be large or run the other way.
attribute_measured: outcome

O=C(Nc1ccc([N+](=O)[O-])cc1Cl)c1cc(Cl)ccc1O: inactive
Cc1cnc(C(=O)NCCc2ccc(S(=O)(=O)NC(=O)NC3CCCCC3)cc2)cn1: inactive
CC(C)NCC(O)COc1ccc(CCOCC2CC2)cc1 (stereo not drawn): inactive

----------
System: MKL-1
Assay: qHTS assay to identify novel small-molecules to repurpose for Merkel cell carcinoma treatment (AID 1296009); note: nearly all actives have a fitted effect of over 60% in size; note: potency is the fitted concentration of half-maximal effect
Details: MCC and control cell lines, CellTiter-Glo viability, 72 h; series mostly up to 46 µM
Results filed as inconclusive are left out. The source made the active and inactive calls. Calls follow the shape of the dose curve; as a rule, active = well fitted inhibition curve with a large enough effect; inconclusive = small, poorly fitted or top-dose-only effect; inactive = flat fitted curve, though single readings scatter.
attribute_measured: Potency

Below: 5 compounds and their reported Potency.
COc1ccc(CCN(C)CCCC(C#N)(c2ccc(OC)c(OC)c2)C(C)C)cc1OC (stereo unspecified): inactive
Cn1ccc2cc3c(cc21)CCN3C(=O)Nc1cccnc1: inactive
Clc1ccc2c(c1)C(N1CCNCC1)=Nc1ccccc1O2: inactive
CN1CCN(CCCN2c3ccccc3Sc3ccc(Cl)cc32)CC1: 16.6 µM (active)
CCCNCC(O)COc1ccccc1C(=O)CCc1ccccc1 (stereo unspecified): inactive

# Potency (compound: O=c1c(O)c(-c2ccc(O)c(O)c2)oc2cc(O)cc(O)c12 ) is inactive

# Potency (compound: CCOC(=O)C(C)(C)Oc1ccc(Cl)cc1 ) is inactive

# Potency (compound: Cc1ccccc1N1C(=O)c2cc(S(N)(=O)=O)c(Cl)cc2NC1C (stereo unspecified) ) is inactive

# Potency (compound: CS(=O)(=O)CCNCc1ccc(-c2ccc3ncnc(Nc4ccc(OCc5cccc(F)c5)c(Cl)c4)c3c2)o1 ) is inactive

# Potency (compound: Nc1c2c(nc3ccccc13)CCCC2 ) is inactive

# Potency (compound: Cn1cnc2c1c(=O)[nH]c(=O)n2C ) is inactive

# Potency (compound: CCc1cccc2c3c([nH]c12)C(CC)(CC(=O)O)OCC3 (stereo unspecified) ) is inactive

# Potency (compound: C[C@](N)(Cc1ccc(O)c(O)c1)C(=O)O ) is inactive

# Potency (compound: Nc1nnc(-c2cccc(Cl)c2Cl)c(N)n1 ) is inactive

# Potency (compound: CN1CCN(C2=Nc3cc(Cl)ccc3Nc3ccccc32)CC1 ) is inactive

# Potency (compound: CC(C)NCC(O)c1ccc(O)c(O)c1 (stereo unspecified) ) is 8.41 µM (active)

----------
Test: qHTS Screen of the MIPE 4.0 Collection Against Ewings Sarcoma (TC32) (AID 1259256); note: nearly all actives have a fitted effect of over 45% in size
Conditions: TC32 Ewing sarcoma viability, CellTiter-Glo, 48 h; series mostly up to 45.8 µM
Procedure: There is a large unmet medical need for treatments for Ewing sarcoma, a pediatric sarcoma. […] Using the NCATS developed oncology compound library called the Mechanism of Interrogation Plate (MIPE), four Ewing sarcoma cell lines were evaluated (TC32, TC71, RDES, EW8). Compounds, in a 12-point titration series, were incubated with cells for 48 hours and the read out was cell viability (CellTiter-Glo from Promega). […]
Records with an inconclusive call do not appear. Calls of active or inactive are those of the source. Calls come from the whole dose curve; as a rule, active = well fitted inhibition curve with a large enough effect; inconclusive = small, poorly fitted or top-dose-only effect; inactive = no such curve, though single readings can be large or run the other way.
Answer with one of the outcomes given here: active, inactive

O=C1c2c(O)ccc(O)c2C(=O)c2c(NCCNCCO)ccc(NCCNCCO)c21: inactive

Outcome? O=c1c(O)c(-c2ccc(O)c(O)c2)oc2cc(O)cc(O)c12
active

Outcome? CCc1cccc2c3c([nH]c12)C(CC)(CC(=O)O)OCC3 (stereo not given)
inactive

Outcome? CCCCc1oc2ccccc2c1C(=O)c1cc(I)c(OCCN(CC)CC)c(I)c1
active

Outcome? CNCCCC12CCC(c3ccccc31)c1ccccc12
active

----------
Assay: qHTS for differential inhibitors of proliferation of Plasmodium falciparum line Dd2 (AID 1882); note: nearly all actives have a fitted effect of over 65% in size
Conditions: Plasmodium falciparum Dd2 proliferation inhibition; series mostly up to 28.7 µM
From the text: NIH Molecular Libraries Probe Production Network [MLPCN] NIH National Institute of Allergy and Infectious Diseases [NIAID] NIH Chemical Genomics Center [NCGC] Assay Provider: Xinzhuan Su, NIAID Plasmodium falciparum is a virulent malarial parasite that kills 1-2 million people worldwide each year. […] Because mature erythrocytes lack DNA, only Plasmodium-derived DNA is detected. […]
Records with an inconclusive call do not appear. Active and inactive are the calls of the source. Calls follow the shape of the dose curve; as a rule, active = well fitted inhibition curve with a large enough effect; inconclusive = small, poorly fitted or top-dose-only effect; inactive = flat fitted curve, though single readings scatter.
Answer with one of the outcomes given here: label 1 (active), label 0 (inactive)

Some entries whose results are on file:
Fc1ccc([C@@H]2CCNC[C@H]2COc2ccc3c(c2)OCO3)cc1: label 1
CC1COc2c(N3CCN(C)CC3)c(F)cc3c(=O)c(C(=O)O)cn1c23 (stereo unspecified): label 0

Outcome? CC12CC3CC(C)(C1)CC(N)(C3)C2
label 1

Outcome? Cc1cnc(C(=O)NCCc2ccc(S(=O)(=O)NC(=O)NC3CCCCC3)cc2)cn1
label 0

Outcome? CCC1(C)CC(=O)NC1=O (stereo unspecified)
label 0

Outcome? CNCCCC12CCC(c3ccccc31)c1ccccc12
label 1

----------
Target: Bile acid receptor (Homo sapiens) (UniProt Q96RI1)
Sequence (Q96RI1 whole entry, looked up): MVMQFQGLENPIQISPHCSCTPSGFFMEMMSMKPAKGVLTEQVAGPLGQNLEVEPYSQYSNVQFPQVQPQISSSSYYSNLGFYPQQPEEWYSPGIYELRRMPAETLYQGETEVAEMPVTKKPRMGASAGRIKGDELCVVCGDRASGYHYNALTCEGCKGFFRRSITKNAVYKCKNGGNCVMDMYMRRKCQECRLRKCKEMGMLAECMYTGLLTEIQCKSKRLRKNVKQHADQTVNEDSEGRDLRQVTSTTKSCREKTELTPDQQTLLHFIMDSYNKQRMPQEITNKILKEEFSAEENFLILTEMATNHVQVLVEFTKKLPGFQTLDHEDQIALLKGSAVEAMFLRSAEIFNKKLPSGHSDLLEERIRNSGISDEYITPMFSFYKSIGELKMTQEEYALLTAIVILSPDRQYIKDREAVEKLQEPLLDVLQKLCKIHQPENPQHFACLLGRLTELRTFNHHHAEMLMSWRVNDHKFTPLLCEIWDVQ
Assay: qHTS assay for small molecule antagonists of farnesoid X receptor signaling (AID 588526)
Settings: HEK293T FXR-UAS-bla, beta-lactamase ratio, antagonist mode; series mostly up to 76.7 µM
Records with an inconclusive call do not appear. Calls of active or inactive are those of the source. Calls follow the shape of the full dose curve.
Answer with one of the outcomes given here: active, inactive

Some entries whose results are on file:
NS(=O)(=O)c1cc2c(cc1Cl)NCNS2(=O)=O: inactive
Cc1cn([C@H]2C=C[C@@H](CO)O2)c(=O)[nH]c1=O: inactive
O=c1c(-c2ccc(O)cc2)coc2cc(O)cc(O)c12: active
CC(C)C(=O)Nc1ccc([N+](=O)[O-])c(C(F)(F)F)c1: inactive

Consider now this further compound.
Outcome? O=C(CCCN1CCC(O)(c2ccc(Cl)cc2)CC1)c1ccc(F)cc1
inactive
